test: Cytotoxicity against human HL-7702 cells at 10 uM after 24 hrs by MTT assay; assay type: cell-based; settings: l02, 24 h
observed-property: Activity

C=CCc1cc(/C=C/C(=O)/C=C/c2ccc(O)c(CC=C)c2)ccc1O; Non-toxic
COc1cc(/C=C2\CC/C(=C\c3ccc(OCC=C(C)C)c(OC)c3)C2=O)ccc1OCC=C(C)C; Non-toxic
C=CCc1cc(/C=C/C(=O)/C=C/c2ccccc2Cl)ccc1OC; Non-toxic

* * *

test system: RAW264.7; assay: Antiinflammatory activity in mouse RAW264.7 cells assessed as inhibition of LPS-induced TNF-alpha gene expression pretreated at 10 uM for 2 hrs prior LPS challenge measured after 6 hrs post challenge by RT-qPCR analysis; assay type: functional, cell-based
Calls of active or inactive are those of the source. The rule behind the calls is not given here.
observed-property: inhibition

Sample records with inhibition:
C=CCc1cc(/C=C/C(=O)/C=C/c2cc(OC)c(OC)cc2OC)ccc1OC; Active
C=CCc1cc(/C=C/C(=O)/C=C/c2cc(F)ccc2Br)ccc1OC; Active
C=CCc1cc(/C=C/C(=O)/C=C/c2ccc(O)c(CC=C)c2)ccc1O; Active
COc1cc(/C=C/C(=O)CC(=O)/C=C/c2ccc(O)c(OC)c2)ccc1O; Active
C=CCc1cc(/C=C/C(=O)/C=C/c2ccc(N3CCOCC3)cc2)ccc1OC; Active

The reported inhibition of the compound C=CCc1cc(/C=C/C(=O)/C=C/c2ccc(OC)c(OC)c2)ccc1O was Active

// inhibition value for C=CCc1cc(/C=C/C(=O)/C=C/c2cc(Br)ccc2Br)ccc1OC : Active
